Taken from patent US20030157541A1.

- TARGET UNDER TEST: CysLT2 (Homo sapiens)
- Sequence (Q9NS75 whole entry): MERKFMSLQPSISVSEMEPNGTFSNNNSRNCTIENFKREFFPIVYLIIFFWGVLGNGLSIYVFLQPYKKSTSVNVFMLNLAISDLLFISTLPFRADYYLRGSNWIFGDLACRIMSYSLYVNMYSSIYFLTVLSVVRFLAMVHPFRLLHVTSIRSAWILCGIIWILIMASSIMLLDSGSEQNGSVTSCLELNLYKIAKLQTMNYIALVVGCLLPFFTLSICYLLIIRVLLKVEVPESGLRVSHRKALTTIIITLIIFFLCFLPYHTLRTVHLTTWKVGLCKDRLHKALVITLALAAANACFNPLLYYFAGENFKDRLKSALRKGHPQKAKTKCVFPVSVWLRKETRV
PARAMETER MEASURED: IC50 (nM)

P. O=C(O)CCCNC(=O)c1cc(C(=O)O)ccc1OCCCc1ccc(OCCCCOc2ccccc2)cc1 [Bay y8934]
Q. CCOC(=O)c1cn(-c2ccc(C3=CC(F)(F)C3(F)F)cc2)c2cc(F)c(F)cc2c1=O [Bay y9773]
Please let me know which one, P or Q , has a lower measured IC50 value. Could you answer with the label of the item you picked? P
(P: 1000 nM, Q: 2000 nM)
